Values were extracted from paper PMC11331505.

target: HDGF PWWP domain (human, UniProt P51858 1-100); assay: PIFQ (Cy3 fluorescence quenching); 1 nM DNA; Hill fit; HDGF assays: 46 mM NaCl, 0.9 mM KCl, 3.3 mM Na2HPO4, 0.66 mM KH2PO4, pH 7.4; at least 1 h on ice; 1-10 nM Cy3 DNA, 10 pM-100 nM protein; RecA dsDNA control at pH 7.5; settings: protein: recombinant; label: 5' Cy3
Sequence (P51858 1-100): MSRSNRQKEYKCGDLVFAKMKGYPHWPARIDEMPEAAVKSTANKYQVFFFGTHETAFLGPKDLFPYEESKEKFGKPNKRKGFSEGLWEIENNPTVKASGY
Value type: Kd (nM)
One number for each entry, in nM.

*Q* What does the record list as Kd for poly(T-A)15 dsDNA (dsDNA) DNA 1: TTTTTTTTTTTTTTT DNA 2: AAAAAAAAAAAAAAA ?
*A* 1.6
